All figures here come from patent US6479487B1.

- System: Colo-205
- assay-comment: In vitro tumor cell proliferation, Colo-205
- Format: cell-based
- conditions: Colo-205; values given with an undefined *; read-out: In vitro Tumor Cell Proliferation (IC50, μM) Colon Colo-205
- Protocol: The proliferation of tumor cells was measured using a sulforhodamine B assay as described in Skehan, P., et al., J. Natl. Cancer Inst. […] Tumor cells were harvested with trypsin-EDTA, cells that excluded trypan blue were counted, added to 96-well plates and incubated overnight at 37° C. […] Alternatively, the CyQUANT cell proliferation assay was used to quantitate cell proliferation. Alternatively, the CyQUANT cell proliferation assay was used to quantify tumor cell proliferation. […]
readout: IC50 (µM)

N[C@H]1CC[C@H](Nc2nc(NC3CCN(CC4CC4)CC3)c3ncn(C4CCCC4)c3n2)CC1 [Example 52] :: 1.1
N[C@H]1CC[C@H](Nc2nc(NC3CCN(Cc4ccccc4Cl)CC3)c3ncn(C4CCCC4)c3n2)CC1 [Example 43] :: 0.23

a: N[C@H]1CC[C@H](Nc2nc(NC3CCN(Cc4c(Cl)cccc4Cl)CC3)c3ncn(C4CCCC4)c3n2)CC1 [Example 45]
b: COc1cc(CNc2nc(NC3CCC(N)CC3)nc3c2ncn3C2CCCC2)cc(OC)c1OC (centres unmarked) [Example 147-ae]
## Task Of the two listed items, which has the higher IC50? First: a Second: b Label of pick, please.
## Result b
(b: 8.6 µM, a: 0.48 µM)

* * *

- Tested on: DMS-114
- assay-comment: In vitro tumor cell proliferation, DMS-114
- Type: cell-based, human
- conditions: DMS-114; many values given with an undefined *; trihydrochloride; read-out: In vitro Tumor Cell Proliferation (IC50, μM) Lung DMS-114
Structures can show the parent of a compound that is named as a salt.
readout: IC50 (µM)

A: CCN(CC)CCNc1nc(N[C@H]2CC[C@H](N)CC2)nc2c1ncn2C1CCCC1 [Example 6, trihydrochloride]
B: N[C@H]1CC[C@H](Nc2nc(NC3CCN(Cc4ccc(F)cc4Cl)CC3)c3ncn(C4CCCC4)c3n2)CC1 [Example 147-t, trihydrochloride]
C: N[C@H]1CC[C@H](Nc2nc(NC3CCN(Cc4cc(F)cc(F)c4)CC3)c3ncn(C4CCCC4)c3n2)CC1 [Example 147-g, trihydrochloride]
D: N[C@H]1CC[C@H](Nc2nc(NC3CCN(Cc4c(F)cccc4F)CC3)c3ncn(C4CCCC4)c3n2)CC1 [Example 147-v, trihydrochloride]
## Task List these items ordered by IC50, big to small. Please respond with the labels ordered as the question requires.
## Result A, D, B, C

* * *

- System: DMS-114
- assay-comment: In vitro tumor cell proliferation, DMS-114
- Assay type: cell-based, human
- conditions: DMS-114; many values given with an undefined *; trihydrochloride; read-out: In vitro Tumor Cell Proliferation (IC50, μM) Lung DMS-114
Counter-ions that a name gives are not always drawn.
readout: IC50 (µM)

N[C@H]1CC[C@H](Nc2nc(NC3CCN(Cc4cccc5ccccc45)CC3)c3ncn(C4CCCC4)c3n2)CC1 [Example 147-a, trihydrochloride] :: 0.33
N[C@H]1CC[C@H](Nc2nc(NC3CCN(Cc4ccc(F)c(F)c4)CC3)c3ncn(C4CCCC4)c3n2)CC1 [Example 147-u, trihydrochloride] :: 0.35

P: N[C@H]1CC[C@H](Nc2nc(NC3CCN(Cc4ccccc4)CC3)c3ncn(C4CCCC4)c3n2)CC1 [Example 33, trihydrochloride]
Q: N[C@H]1CC[C@H](Nc2nc(NC3CCN(Cc4cccc(C(F)(F)F)c4)CC3)c3ncn(C4CCCC4)c3n2)CC1 [Example 147-m, trihydrochloride]
R: N[C@H]1CC[C@H](Nc2nc(NC3CCN(Cc4ccc5ccccc5c4)CC3)c3ncn(C4CCCC4)c3n2)CC1 [Example 147-p, trihydrochloride]
## Task Order the records by IC50, with each subsequent value no larger than the one before. Thanks in advance for listing the labels in the requested order.
## Result R, Q, P

1: N[C@H]1CC[C@H](Nc2nc(NC3CCN(Cc4ccccc4OC(F)(F)F)CC3)c3ncn(C4CCCC4)c3n2)CC1 [Example 147-ab, trihydrochloride]
2: N[C@H]1CC[C@H](Nc2nc(NC3CCN(Cc4ccccc4F)CC3)c3ncn(C4CCCC4)c3n2)CC1 [Example 147-k, trihydrochloride]
3: N[C@H]1CC[C@H](Nc2nc(NCCNc3ccccc3)c3ncn(C4CCCC4)c3n2)CC1 [Example 31, trihydrochloride]
4: N[C@H]1CC[C@H](Nc2nc(NC3CCN(Cc4ccc(F)cc4)CC3)c3ncn(C4CCCC4)c3n2)CC1 [Example 147-l, trihydrochloride]
## Task Falling order of IC50, please. Respond with the label ranking, as requested.
## Result 3, 1, 4, 2
(3: 1.8 µM, 1: 0.64 µM, 4: 0.43 µM, 2: 0.29 µM)

* * *

- Test system: Colo-205
- assay-comment: In vitro tumor cell proliferation, Colo-205
- Type: cell-based
- conditions: Colo-205; values given with an undefined *; dihydrochloride; read-out: In vitro Tumor Cell Proliferation (IC50, μM) Colon Colo-205
Structures can show the parent of a compound that is named as a salt.
readout: IC50 (µM)

Example cases with answers are listed next.
COCCCCNc1nc(N[C@H]2CC[C@H](N)CC2)nc2c1ncn2C1CCCC1 [Example 29, dihydrochloride] :: 4.6
N[C@H]1CC[C@H](Nc2nc(Nc3ccccc3)c3ncn(C4CCCC4)c3n2)CC1 [Example 32, dihydrochloride] :: 1.2
N[C@H]1CC[C@H](Nc2nc(NCc3cccc4ccccc34)c3ncn(C4CCCC4)c3n2)CC1 [Example 7, dihydrochloride] :: 3.5
N[C@H]1CC[C@H](Nc2nc(NNc3ccccc3F)c3ncn(C4CCCC4)c3n2)CC1 [Example 11, dihydrochloride] :: 5.2

I: COc1ccc2[nH]cc(CCNc3nc(N[C@H]4CC[C@H](N)CC4)nc4c3ncn4C3CCCC3)c2c1 [Example 9, dihydrochloride]
II: COCCCNc1nc(N[C@H]2CC[C@H](N)CC2)nc2c1ncn2C1CCCC1 [Example 22, dihydrochloride]
## Task Just tell me: smaller IC50 value, I or II ? State your choice using its label.
## Result I

* * *

- System: A549
- assay-comment: In vitro tumor cell proliferation, A549
- Format: cell-based, human
- conditions: Homo sapiens, A549, A549; many values given with an undefined *; read-out: In vitro Tumor Cell Proliferation (IC50, μM) Lung A549
Structures can show the parent of a compound that is named as a salt.
readout: IC50 (µM)

Sample answers from the record:
N[C@H]1CC[C@H](Nc2nc(NC3CCN(Cc4cc(Cl)ccc4Cl)CC3)c3ncn(C4CCCC4)c3n2)CC1 [Example 147-r, trihydrochloride] :: 0.33
N[C@H]1CC[C@H](Nc2nc(NCC3CCN(Cc4ccccc4)CC3)c3ncn(C4CCCC4)c3n2)CC1 [Example 147-ac, trihydrochloride] :: 0.47
COc1ccccc1CNc1nc(N[C@H]2CC[C@H](N)CC2)nc2c1ncn2C1CCCC1 [Example 12, dihydrochloride] :: 5.6
N[C@H]1CC[C@H](Nc2nc(NC3CCN(Cc4cccc5ccccc45)CC3)c3ncn(C4CCCC4)c3n2)CC1 [Example 147-a, trihydrochloride] :: 0.17
COc1ccc(CNc2nc(N[C@H]3CC[C@H](N)CC3)nc3c2ncn3C(C)C)cc1OC [Example 19, dihydrochloride] :: 22

P: N[C@H]1CC[C@H](Nc2nc(NC3CCN(Cc4ccc(Cl)c(Cl)c4)CC3)c3ncn(C4CCCC4)c3n2)CC1 [Example 147-o, trihydrochloride]
Q: N[C@H]1CC[C@H](Nc2nc(NC3CCN(Cc4cc(F)cc(F)c4)CC3)c3ncn(C4CCCC4)c3n2)CC1 [Example 147-g, trihydrochloride]
## Task Could you kindly indicate whether P or Q has the higher IC50 value? Select an item and report its label.
## Result P
(P: 0.42 µM, Q: 0.19 µM)

* * *

- Test system: HT-29
- assay-comment: In vitro tumor cell proliferation, HT-29
- Type: cell-based, human
- conditions: HT-29; many values given with an undefined *; dihydrochloride; read-out: In vitro Tumor Cell Proliferation (IC50, μM) Colon HT-29
- Procedure: The proliferation of tumor cells was measured using a sulforhodamine B assay as described in Skehan, P., et al., J. Natl. Cancer Inst. […] Tumor cells were harvested with trypsin-EDTA, cells that excluded trypan blue were counted, added to 96-well plates and incubated overnight at 37° C. […] Alternatively, the CyQUANT cell proliferation assay was used to quantitate cell proliferation. Alternatively, the CyQUANT cell proliferation assay was used to quantify tumor cell proliferation. […]
Where a name gives a salt, the structure may show the parent alone.
readout: IC50 (µM)

N[C@H]1CC[C@H](Nc2nc(NCc3cccc4ccccc34)c3ncn(C4CCCC4)c3n2)CC1 [Example 7, dihydrochloride] :: 4.8

A: N[C@H]1CC[C@H](Nc2nc(Nc3cccc(F)c3)c3ncn(C4CCCC4)c3n2)CC1 [Example 21, dihydrochloride]
B: COc1cccc(CCNc2nc(N[C@H]3CC[C@H](N)CC3)nc3c2ncn3C2CCCC2)c1 [Example 27, dihydrochloride]
## Task Among A and B , whose measured IC50 is the smaller figure? Lab note: record the label of whichever item you select.
## Result A
